Just for reference, ChEMBL document CHEMBL3877300 is where these values come from.

assay.remarks: cells
condition.label: Homo sapiens, HCT-116, 72 h
Description: Antiproliferative activity against human HCT116 cells after 72 hrs by MTT assay
observation.type: pIC50
pIC50 is a log-scale quantity: -log10 of the concentration expressed in molar.

Use these answered entries as a reference point.
NC1=NC2(CCOCC2)N(OCCCOc2ccccc2Br)C(N)=N1: 7.52
NC1=NC2(CCSCC2)N(OCCCOc2cc(Cl)c(Cl)cc2Cl)C(N)=N1: 9.00
NC1=NC2(CCOCC2)N(OCCCOc2ccccc2)C(N)=N1: 5.22
NC1=NC2(CCCCC2)N(OCCCOc2ccc(Cl)cc2)C(N)=N1: 6.42
NC1=NC2(CCOCC2)N(OCCCOc2cc(Cl)c(Cl)cc2Cl)C(N)=N1: 5.56

[in] Param item = NC1=NC2(CCSCC2)N(OCCCOc2cccc(Cl)c2Cl)C(N)=N1 ; retrieve measured pIC50.
[out] 9.00

[in] Param item = CC(C)(C)c1ccc(OCCCON2C(N)=NC(N)=NC23CCSCC3)cc1 ; retrieve measured pIC50.
[out] 9.00

[in] Param item = NC1=NC2(CCSCC2)N(OCCCOc2ccc(Cl)cc2)C(N)=N1 ; retrieve measured pIC50.
[out] 8.00

[in] Param item = NC1=NC2(CCOCC2)N(OCCCOc2cccc(Br)c2)C(N)=N1 ; retrieve measured pIC50.
[out] 7.40

[in] Param item = NC1=NC2(CCOCC2)N(OCCCOc2cccc(Cl)c2)C(N)=N1 ; retrieve measured pIC50.
[out] 6.92

[in] Param item = Br.NC1=NC2(CCOCC2)N(OCCCOc2ccc(Cl)cc2Cl)C(N)=N1 ; retrieve measured pIC50.
[out] 6.06
